Where do the numbers come from? From ChEMBL document CHEMBL5346863.

Please provide measured MIC for the entries that follow.
system: Mycobacterium tuberculosis; assay: Antibacterial activity against Mycobacterium tuberculosis H37Ra assessed as bacterial growth inhibition incubated 2 to 3 weeks by resazurin dye based assay; type: functional; details: time 2-3 weeks
Answers are plain numbers, in µM.

[
  {
    "STRUCTURE_STRING": "Brc1ccccc1COc1ccc(CNCc2ccccc2)cc1",
    "TESTED_TARGET": "Mycobacterium tuberculosis",
    "PROPERTY_LABEL": "MIC",
    "UNIT_STRING": "µM",
    "MEASURED": 3.9
  },
  {
    "STRUCTURE_STRING": "Fc1ccc(COc2ccccc2CNCc2ccccc2)cc1",
    "TESTED_TARGET": "Mycobacterium tuberculosis",
    "PROPERTY_LABEL": "MIC",
    "UNIT_STRING": "µM",
    "MEASURED": 31.3
  },
  {
    "STRUCTURE_STRING": "Fc1ccc(COc2ccc(CNCc3cccnc3)cc2)cc1",
    "TESTED_TARGET": "Mycobacterium tuberculosis",
    "PROPERTY_LABEL": "MIC",
    "UNIT_STRING": "µM",
    "MEASURED": 31.3
  }
]

Need MIC for each of these compounds.
1. Clc1ccc(COc2ccccc2CNCc2cccnc2)cc1
2. COc1ccc(COc2ccc(CNCc3ccccc3)cc2)cc1
3. Fc1ccc(COc2cccc(CNCc3ccncc3)c2)cc1
4. Clc1ccc(COc2ccc(CNCc3cccnc3)cc2)cc1
5. Clc1ccc(COc2ccccc2CNCc2ccncc2)cc1

Response:
[62.5, 3.9, 31.3, 31.3, 31.3]

The value of MIC measured for the compound Brc1ccc(COc2ccccc2CNCc2ccccc2)cc1 turned out to be 31.3

###

Please provide measured MIC for the entries that follow.
test system: Mycobacteroides abscessus; assay: Antibacterial activity against Mycobacterium abscessus ATCC 19977 assessed as bacterial growth inhibition incubated for 2 to 3 weeks by resazurin dye based assay; assay type: functional; details: time 2-3 weeks
One number for each entry, in µM.

[
  {
    "MOLECULE": "Clc1ccc(COc2ccc(CNCc3ccccc3)cc2)cc1",
    "UNIT_STRING": "µM",
    "MIC": 31.3
  },
  {
    "MOLECULE": "Brc1ccccc1COc1ccc(CNCc2ccccc2)cc1",
    "UNIT_STRING": "µM",
    "MIC": 31.3
  },
  {
    "MOLECULE": "Fc1ccc(COc2ccc(CNCc3cccnc3)cc2)cc1",
    "UNIT_STRING": "µM",
    "MIC": 31.3
  }
]

Need MIC for each of these molecules.
1. CC(C)(C)c1ccc(COc2ccc(CNCc3ccccc3)cc2)cc1
2. Clc1ccc(COc2cccc(CNCc3ccccc3)c2)cc1
3. Clc1ccc(COc2ccccc2CNCc2ccncc2)cc1

Response:
1: 7.8; 2: 31.3; 3: 31.3

Need MIC for each of these molecules.
1. Fc1ccc(COc2cccc(CNCc3ccccc3)c2)cc1
2. CC(C)c1ccc(COc2ccc(CNCc3ccccc3)cc2)cc1
3. NCC[C@H](O)C(=O)N[C@@H]1C[C@H](N)[C@@H](O[C@H]2O[C@H](CN)[C@@H](O)[C@H](O)[C@H]2O)[C@H](O)[C@H]1O[C@H]1O[C@H](CO)[C@@H](O)[C@H](N)[C@H]1O [AMIKACIN]

Response:
1. 31.3
2. 7.8
3. 1

###

target: N-acetyltransferase Eis (Mycobacterium tuberculosis (strain ATCC 25618 / H37Rv)); experiment: Binding affinity to wild-type Mycobacterium tuberculosis Eis expressed in Escherichia coli BL21(DE3) cells assessed as inhibition constant incubated for 5 mins by Ellman's method based Michaelis-Menten analysis
PROPERTY_LABEL: Ki (nM)
One number for each entry, in nM.

// worked examples, Ki included
[
  {
    "STRUCTURE_STRING": "Clc1ccc(COc2ccccc2CNCc2ccncc2)cc1",
    "TESTED_TARGET": "N-acetyltransferase Eis (Mycobacterium tuberculosis (strain ATCC 25618 / H37Rv))",
    "Ki (nM)": 1040
  },
  {
    "STRUCTURE_STRING": "Clc1ccc(COc2ccccc2CNCc2cccnc2)cc1",
    "TESTED_TARGET": "N-acetyltransferase Eis (Mycobacterium tuberculosis (strain ATCC 25618 / H37Rv))",
    "Ki (nM)": 1160
  }
]

Now turn to the next compound.
The value of Ki measured for the compound Brc1ccc(COc2ccccc2CNCc2ccccc2)cc1 turned out to be 5260

###

target: N-acetyltransferase Eis (Mycobacterium tuberculosis (strain ATCC 25618 / H37Rv)); assay: Inhibition of wild-type Mycobacterium tuberculosis Eis expressed in Escherichia coli BL21(DE3) cells incubated for 5 mins by Ellman's method
Please provide measured pIC50 for the entries that follow.
One number for each entry, as −log10 of the molar value.

// worked examples, pIC50 included
[
  {
    "STRUCTURE_STRING": "Clc1ccc(COc2ccccc2CNCc2ccncc2)cc1",
    "MEASURED": 5.85
  },
  {
    "STRUCTURE_STRING": "Brc1ccc(COc2ccccc2CNCc2ccccc2)cc1",
    "MEASURED": 5.89
  },
  {
    "STRUCTURE_STRING": "Clc1ccc(COc2ccc(CNCc3ccncc3)cc2)cc1",
    "MEASURED": 5.70
  },
  {
    "STRUCTURE_STRING": "Clc1ccc(COc2cccc(CNCc3ccccc3)c2)cc1",
    "MEASURED": 5.27
  },
  {
    "STRUCTURE_STRING": "Fc1ccc(COc2ccc(CNCc3cccnc3)cc2)cc1",
    "MEASURED": 5.41
  },
  {
    "STRUCTURE_STRING": "Clc1ccc(COc2ccccc2CNCc2ccccc2)cc1",
    "MEASURED": 5.27
  }
]

Need pIC50 for each of these compounds.
1. Clc1ccc(COc2ccccc2CNCc2cccnc2)cc1
2. Fc1ccc(COc2ccccc2CNCc2cccnc2)cc1
3. Fc1ccc(COc2cccc(CNCc3cccnc3)c2)cc1

Response:
5.70
5.00
5.19

Need pIC50 for each of these compounds.
1. COc1ccc(COc2ccc(CNCc3ccccc3)cc2)cc1
2. Brc1cccc(COc2ccc(CNCc3ccccc3)cc2)c1
3. Clc1ccc(COc2ccc(CNCc3cccnc3)cc2)cc1
4. Brc1ccc(COc2ccccc2CNCc2ccncc2)cc1
5. CC(C)c1ccc(COc2ccc(CNCc3ccccc3)cc2)cc1
6. Clc1cccc(COc2ccccc2CNCc2cccnc2)c1
7. Clc1cccc(COc2ccccc2CNCc2ccncc2)c1

Response:
[4.92, 5.62, 5.54, 5.37, 5.85, 5.38, 5.05]

###

test system: Mycobacterium avium; experiment: Antibacterial activity against Mycobacterium avium ATCC 25291 assessed as bacterial growth inhibition incubated for 2 to 3 weeks by resazurin dye based assay; format: functional; conditions: time 2-3 weeks
Please provide measured MIC for the entries that follow.

Need MIC for each of these molecules.
1. Fc1ccc(COc2ccccc2CNCc2ccccc2)cc1
2. c1ccc(CNCc2ccccc2OCc2ccccc2)cc1
3. Clc1ccc(COc2ccc(CNCc3ccccc3)cc2)cc1

Response:
1: > 62.5 µM; 2: > 62.5 µM; 3: 62.5 µM

Need MIC for each of these molecules.
1. Clc1cccc(COc2ccccc2CNCc2cccnc2)c1
2. Brc1ccc(COc2ccc(CNCc3ccccc3)cc2)cc1
3. Brc1ccc(COc2ccccc2CNCc2ccncc2)cc1
4. Fc1ccc(COc2cccc(CNCc3ccncc3)c2)cc1
5. Fc1ccc(COc2ccc(CNCc3ccccc3)cc2)cc1
6. Clc1ccc(COc2ccc(CNCc3ccncc3)cc2)cc1
7. c1ccc(CNCc2ccc(OCc3ccccc3)cc2)cc1

Response:
> 62.5 µM
62.5 µM
> 62.5 µM
> 62.5 µM
> 62.5 µM
> 62.5 µM
62.5 µM

###

test system: Mycobacterium tuberculosis; assay: Antibacterial activity against Mycobacterium tuberculosis H37Ra assessed as bacterial growth inhibition incubated 2 to 3 weeks by resazurin dye based assay; type: functional; details: time 2-3 weeks
PROPERTY_LABEL: MIC

[
  {
    "STRUCTURE_STRING": "Fc1ccc(COc2ccc(CNCc3ccccc3)cc2)cc1",
    "TESTED_TARGET": "Mycobacterium tuberculosis",
    "MIC": "> 250 µM"
  }
]

Need MIC for each of these compounds.
1. c1ccc(COc2ccc(CNCc3ccncc3)cc2)cc1
2. Fc1ccc(COc2ccccc2CNCc2ccncc2)cc1

Response:
1: > 62.5 µM; 2: > 250 µM

###

Please provide measured pIC50 for the entries that follow.
target: N-acetyltransferase Eis (Mycobacterium tuberculosis (strain ATCC 25618 / H37Rv), UniProt P9WFK7); assay: Inhibition of wild-type Mycobacterium tuberculosis Eis expressed in Escherichia coli BL21(DE3) cells incubated for 5 mins by Ellman's method
Sequence (P9WFK7 whole entry): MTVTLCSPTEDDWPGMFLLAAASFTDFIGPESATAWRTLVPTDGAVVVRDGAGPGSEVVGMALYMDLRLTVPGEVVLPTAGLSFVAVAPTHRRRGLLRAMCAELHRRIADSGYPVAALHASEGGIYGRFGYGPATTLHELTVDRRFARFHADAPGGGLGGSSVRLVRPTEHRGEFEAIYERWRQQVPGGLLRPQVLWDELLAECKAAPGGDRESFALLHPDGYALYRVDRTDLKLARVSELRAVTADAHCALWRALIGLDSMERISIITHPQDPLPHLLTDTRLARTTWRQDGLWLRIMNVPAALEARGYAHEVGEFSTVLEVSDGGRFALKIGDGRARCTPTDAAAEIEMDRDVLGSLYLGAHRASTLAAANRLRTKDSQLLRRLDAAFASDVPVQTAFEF
pIC50: −log10 of the molar value.

Need pIC50 for each of these molecules.
1. CC(C)(C)c1ccc(COc2ccc(CNCc3ccccc3)cc2)cc1
2. c1ccc(COc2ccccc2CNCc2cccnc2)cc1
3. Fc1ccc(COc2ccc(CNCc3ccncc3)cc2)cc1
4. c1ccc(CNCc2ccccc2OCc2ccccc2)cc1
5. c1ccc(CNCc2ccc(OCc3ccc(-c4ccccc4)cc3)cc2)cc1
6. c1ccc(COc2ccccc2CNCc2ccncc2)cc1

Response:
["< 3.70", "~4.30", "~5.80", "~4.82", "< 3.70", "~4.40"]

Need pIC50 for each of these molecules.
1. Brc1ccc(COc2ccccc2CNCc2cccnc2)cc1
2. Cc1ccc(COc2ccc(CNCc3ccccc3)cc2)cc1
3. c1ccc(COc2ccc(CNCc3ccncc3)cc2)cc1
4. Clc1ccc(COc2ccc(CNCc3ccccc3)cc2)cc1
5. Fc1ccc(COc2ccccc2CNCc2ccccc2)cc1
6. Clc1ccc(COc2cccc(CNCc3ccncc3)c2)cc1

Response:
["~5.10", "< 3.70", "~4.40", "< 3.70", "~5.10", "~4.70"]

Need pIC50 for each of these molecules.
1. Fc1ccc(COc2ccc(CNCc3ccccc3)cc2)cc1
2. c1ccc(CNCc2ccc(OCc3ccccc3)cc2)cc1
3. Fc1ccc(COc2ccccc2CNCc2ccncc2)cc1
4. Brc1ccccc1COc1ccc(CNCc2ccccc2)cc1

Response:
< 3.70
< 3.70
~4.00
~5.10
